SYSTEM_UNDER_TEST: purified Na^+, K^+ -ATPase (Canis lupus familiaris, UniProt P50997)
Construct: from tissue
METHOD: inhibition of the activity of the purified Na^+, K^+ -ATPase (hydrolysis of ^32 P-ATP)
Type: biochemical
REPORTED_METRIC: IC50 (µM)
Give bare numbers, in µM.

[
  {
    "COMPOUND": "CC(NOCCN(C)C)[C@H]1CC[C@]2(O)[C@@H]3CC[C@@H]4C[C@@H](O)CC[C@]4(C)[C@H]3CC[C@]12C (stereo partly shown)",
    "IC50 [µM]": 63.1
  },
  {
    "COMPOUND": "CN1CCN=C1NNC[C@H]1CC[C@]2(O)[C@@H]3CC[C@@H]4C[C@@H](O)CC[C@]4(C)[C@H]3CC[C@]12C",
    "IC50 [µM]": 10
  },
  {
    "COMPOUND": "C[C@]12CC[C@H](O)C[C@H]1CC[C@@H]1[C@@H]2CC[C@]2(C)[C@@H](C=CCNOCCN)CC[C@]12O",
    "IC50 [µM]": 10
  },
  {
    "COMPOUND": "C[C@]12CC[C@H](O)C[C@H]1CC[C@@H]1[C@@H]2CC[C@]2(C)[C@@H](CNO)CC[C@]12O",
    "IC50 [µM]": 79.4
  },
  {
    "COMPOUND": "C[C@]12CC[C@H](O)C[C@H]1CC[C@@H]1[C@@H]2CC[C@]2(C)[C@@H](CNNC(=N)Nc3ccccc3)CC[C@]12O",
    "IC50 [µM]": 63.1
  }
]

For each of the items listed, what is its IC50?
1. CN(C)CCONC[C@@]1(O)CC[C@]2(O)[C@@H]3CC[C@@H]4C[C@@H](O)CC[C@]4(C)[C@H]3CC[C@]12C
2. C[C@]12CC[C@H](O)C[C@H]1CC[C@@H]1[C@@H]2CC[C@]2(C)[C@@H](CNOCCCN)CC[C@]12O
3. C[C@]12CC[C@H](O)C[C@H]1CC[C@@H]1[C@@H]2CC[C@]2(C)[C@@H](CNOCCN)CC[C@]12O

1. 100
2. 2.51
3. 1
